Details: read-out: Kd of ^3H-E2 specific binding
OBSERVABLE: Kd

Request: # input molecule: C[C@]12CC[C@@H]3c4ccc(O)cc4CC[C@H]3[C@@H]1CC[C@@H]2O [E2, 17β-estradiol] ; wanted: its Kd
Response: 20 to 50 nM

* * *

System: T47D cells
Assay: Cell growth assay, T47D human breast cancer cells
Conditions: 50% (v/v) CDE horse serum, 14 days
OBSERVABLE: growth effect of steroid hormone, result in words

COMPOUND | VAL
C[C@]12CCC(=O)C=C1CC[C@@H]1[C@@H]2[C@@H](O)C[C@@]2(C)[C@H]1CC[C@]2(O)C(=O)CO [cortisol, Hydrocortisone/Cortisol] | completely ineffective
CC(=O)[C@H]1CC[C@H]2[C@@H]3CCC4=CC(=O)CC[C@]4(C)[C@H]3CC[C@]12C [progesterone, Progesterone] | completely ineffective
